Neut IC50 subtype B values by entry
- tgt: RSV F protein of recombinant mKate-RSV, subtype B (18537) (Respiratory syncytial virus subtype B …, UniProt P13843 26-574)
- protocol-details: cell-based or functional assay
recorded-metric: Neut IC50 subtype B (µg/mL)

INSERT INTO results (binder, recorded_metric, readout_units, readout_value) VALUES
  ('ADI-14454 (antibody, V domains shown, full-length IgG (yeast-expressed); also called Antibody Number 17; Ab# 17) VH: QVQLVQSGPTLVKPTQTLTLTCTFSGFSLSTRGVGVGWIRQPPGKALECLGFTYWDGDQFHSPSLKNRLTITKDTSKNQVVLRMTNMDPVDTATYFCVHSDLYDSGGYYLYYFDYWGQGTLVTVSS VL: DIQMTQSPSSLSASVGDRVTITCRASQTIASYLNWYQQRPGEAPKLLIYAASSLQSGVSSRFSGRGSGTDFTLTINILQPEDLATYFCQQAYSAPYTFGQGTKVEIK', 'Neut IC50 subtype B', 'µg/mL', 2.54),
  ('ADI-14503 (antibody, V domains shown, full-length IgG (yeast-expressed); also called Antibody Number 64; Ab# 64) VH: QVQLVQSGGGLVKPGGSLRLSCAASGFSLTNYRMNWVRQAPGKGLEWVSSLKDSSSYIYYADSVKGRFTVSRDDAKNSFFLQMTNVRAEDTAVYYCAREGSDTEYWRLTPPMDVWGNGTTVTVSS VL: QSVLTQPPSVSVAPRQTARITCGEHNIGTKSVHWYQQKPGQAPVLVIYDDSDRPSGIPARFSGSNSGNTATLTISWVEAGDEAVYYCQVWDSGDHPWLFGGGTQLTVL', 'Neut IC50 subtype B', 'µg/mL', 0.026),
  ('ADI-14464 (antibody, V domains shown) VH: QVQLVQSGAEVKKPGASVKVSCEASAYSFSGDYVHWVRQAPGQGLEWMGWIKAVNGGANYAQRFHGRVTMTTDSSRSTVYLELTRLTPDDTAVYFCAKDRAASVHVPAGEFDLWGQGTLVTVSS VL: DIQVTQSPSSLSASVGDRVSITCRASQSISNFLNWYRQRPGKAPELLIYAASTLQGGVPSRFSGSGSGTHFTLTISSLQPEDFATYYCQQSYTIPSITFGQGTRLEIK', 'Neut IC50 subtype B', 'µg/mL', 0.161);
